Target: GABA A receptor α5β3γ2 (Homo sapiens, UniProt P18507+P31644)
Construct: expressed in transfected cells; host or cells: HEK293 (transiently transfected for the human receptors)
Assay: [3H]flumazenil competition binding, human GABA A α5β3γ2 receptors expressed in HEK293 cells
Conditions: Table 1; human α5, [3H]flumazenil, mean of two determinations; read-out: Ki h
pKi: −log10 of the molar value.
OBSERVATION_TYPE: pKi

Worked examples follow.
Cc1onc(-c2ccccc2)c1C(=O)c1c[nH]c2cc(C(=O)NC3CCOCC3)ccc12 8.26
Cc1onc(-c2ccccc2)c1C(=O)c1c[nH]c2cc(C(=O)NCC3CC3)ccc12 8.26
Cc1onc(-c2cccc(F)c2)c1C(=O)c1c[nH]c2cc(C(=O)NCc3ccco3)ccc12 7.21
CC(C)c1onc(-c2cccc(F)c2)c1C(=O)c1c[nH]c2cc(C(=O)NC3CCOCC3)ccc12 7.41
Cc1onc(-c2ccc(F)cc2)c1C(=O)c1c[nH]c2cc(C(=O)NC3CCOCC3)ccc12 8.30

a. Cc1onc(-c2ccccc2)c1C(=O)c1c[nH]c2cc(C(=O)NCc3ccco3)ccc12
b. Cc1onc(-c2cccc(F)c2)c1C(=O)c1cn(-c2ccccc2)c2cc(C(=O)NC3CCOCC3)ccc12
Ask: I would appreciate it if you could say which entry, a or b , has the lower pKi value. Write down the label of the entry you select.
Result: b
(b: 8.01, a: 8.28)

A. Cc1onc(-c2cccc(F)c2)c1C(=O)c1c[nH]c2cc(C(=O)NC3CCCC3)ccc12
B. Cc1onc(-c2cccc(F)c2)c1C(=O)c1c[nH]c2cc(C(=O)NCc3ccccn3)ccc12
Ask: I would appreciate it if you could say which entry, A or B , has the lower pKi value. Write down the label of the entry you select.
Result: A

I. C#CCNC(=O)c1ccc2c(C(=O)c3c(-c4cccc(F)c4)noc3C)cn(-c3ccccc3)c2c1
II. Cc1onc(-c2ccccc2)c1C(=O)c1c[nH]c2cc(C(=O)NCCc3cnc[nH]3)ccc12
Ask: Consider I and II . Which of these has its pKi at a higher number? Write down the label of the entry you select.
Result: II
(II: 8.58, I: 8.07)

A. Cc1onc(-c2ccc(F)cc2)c1C(=O)c1c[nH]c2cc(C(=O)NCCCN3CCOCC3)ccc12
B. Cc1onc(-c2cccc(F)c2)c1C(=O)c1c[nH]c2cc(C(=O)NCCc3cnc[nH]3)ccc12
C. Cc1onc(-c2cccc(F)c2)c1C(=O)c1c[nH]c2cc(C(=O)NC3CC3)ccc12
Ask: Please list these compounds in decreasing order of pKi. Put the labels in the requested order and list them out.
Result: A, B, C

----------
Target: GABA A receptor α5β3γ2 (Homo sapiens, UniProt P18507+P31644)
Construct: expressed in transfected cells; host or cells: HEK293 (transiently transfected for the human receptors)
Assay: [3H]flumazenil competition binding, human GABA A α5β3γ2 receptors expressed in HEK293 cells
Settings: Table 1; human α5, [3H]flumazenil, mean of two determinations; read-out: Ki h
OBSERVATION_TYPE: Ki (nM)

Worked examples follow.
COMPOUND	UNIT_STRING	Ki
C#CCNC(=O)c1ccc2c(C(=O)c3c(-c4cccc(F)c4)noc3C)c[nH]c2c1 [Example 31]	nM	31.9
Cc1onc(-c2ccc(F)cc2)c1C(=O)c1c[nH]c2cc(C(=O)NCc3ccccn3)ccc12 [Example 13]	nM	5.65
CC(C)c1onc(-c2cccc(F)c2)c1C(=O)c1c[nH]c2cc(C(=O)NCC3CC3)ccc12 [Example 37]	nM	39.3
Cc1onc(-c2ccccc2)c1C(=O)c1c[nH]c2cc(C(=O)NC3CCC3)ccc12 [Example 9]	nM	4.35
CC(C)c1onc(-c2cccc(F)c2)c1C(=O)c1c[nH]c2cc(C(=O)NC3CCCC3)ccc12 [Example 40]	nM	44.7
Cc1onc(-c2ccc(F)cc2)c1C(=O)c1c[nH]c2cc(C(=O)NCc3ccco3)ccc12 [Example 15]	nM	4.85
Cc1onc(-c2cccc(F)c2)c1C(=O)c1cn(-c2ccccc2)c2cc(C(=O)NCC3CC3)ccc12 [Example 48]	nM	13.8
C#CCNC(=O)c1ccc2c(C(=O)c3c(-c4ccc(F)cc4)noc3C)c[nH]c2c1 [Example 20]	nM	3.25
Cc1onc(-c2cccc(F)c2)c1C(=O)c1c[nH]c2cc(C(=O)NCC3CC3)ccc12 [Example 30]	nM	53.7

a. Cc1onc(-c2ccccc2)c1C(=O)c1c[nH]c2cc(C(=O)NCCN3CCOCC3)ccc12 [Example 6]
b. C#CCNC(=O)c1ccc2c(C(=O)c3c(-c4cccc(F)c4)noc3C(C)C)c[nH]c2c1 [Example 38]
Ask: I would appreciate it if you could say which entry, a or b , has the lower Ki value. Write down the label of the entry you select.
Result: a
